target: Sentrin-specific protease 7 (Homo sapiens); assay type: functional;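 further: Luminescence-based dose-response confirmation of ultra-high-throughput screening hits, measuring inhibition of SENP7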
Sequence (Q9BQF6 whole entry): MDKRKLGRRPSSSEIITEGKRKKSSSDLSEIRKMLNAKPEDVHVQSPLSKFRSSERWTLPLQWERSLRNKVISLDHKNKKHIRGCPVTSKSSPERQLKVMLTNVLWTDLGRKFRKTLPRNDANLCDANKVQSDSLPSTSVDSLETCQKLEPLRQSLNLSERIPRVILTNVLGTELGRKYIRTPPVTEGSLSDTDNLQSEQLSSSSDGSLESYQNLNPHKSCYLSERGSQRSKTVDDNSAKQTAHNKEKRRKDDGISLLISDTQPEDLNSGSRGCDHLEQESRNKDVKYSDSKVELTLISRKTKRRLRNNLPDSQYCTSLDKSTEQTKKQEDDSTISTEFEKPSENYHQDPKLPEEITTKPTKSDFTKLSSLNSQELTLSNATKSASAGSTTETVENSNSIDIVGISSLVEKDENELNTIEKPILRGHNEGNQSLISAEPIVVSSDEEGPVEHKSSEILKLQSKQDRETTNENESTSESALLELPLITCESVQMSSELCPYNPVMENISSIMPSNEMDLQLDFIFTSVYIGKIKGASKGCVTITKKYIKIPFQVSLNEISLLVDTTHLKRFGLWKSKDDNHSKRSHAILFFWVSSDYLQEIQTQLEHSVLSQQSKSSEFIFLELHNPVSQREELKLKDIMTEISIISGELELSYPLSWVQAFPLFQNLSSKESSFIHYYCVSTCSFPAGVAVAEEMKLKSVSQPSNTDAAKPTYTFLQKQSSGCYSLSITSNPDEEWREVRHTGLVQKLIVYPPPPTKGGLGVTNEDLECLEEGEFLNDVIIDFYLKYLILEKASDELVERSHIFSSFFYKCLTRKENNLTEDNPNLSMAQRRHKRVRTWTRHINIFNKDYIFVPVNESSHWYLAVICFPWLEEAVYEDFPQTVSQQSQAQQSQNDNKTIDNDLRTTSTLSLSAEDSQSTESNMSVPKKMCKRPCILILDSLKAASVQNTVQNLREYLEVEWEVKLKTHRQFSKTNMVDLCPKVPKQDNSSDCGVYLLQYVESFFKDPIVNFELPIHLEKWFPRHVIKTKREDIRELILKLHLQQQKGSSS
Calls of active or inactive are those of the source.
assay-metric: IC50

Q. Provide one value: measured IC50 of `O=C(NCCSc1ccccc1)c1ccc(Br)cc1`
A. 7.71 µM (active)

* * *

biological target: Leucine aminopeptidase (Plasmodium falciparum 3D7, UniProt Q8IL11); assay: P. falciparum M17LAP inhibitors, primary screen, biochemical, fluorogenic H-Leu-NHMec substrate, 1536-well (AID 1619); type: functional
Sequence (Q8IL11 whole entry): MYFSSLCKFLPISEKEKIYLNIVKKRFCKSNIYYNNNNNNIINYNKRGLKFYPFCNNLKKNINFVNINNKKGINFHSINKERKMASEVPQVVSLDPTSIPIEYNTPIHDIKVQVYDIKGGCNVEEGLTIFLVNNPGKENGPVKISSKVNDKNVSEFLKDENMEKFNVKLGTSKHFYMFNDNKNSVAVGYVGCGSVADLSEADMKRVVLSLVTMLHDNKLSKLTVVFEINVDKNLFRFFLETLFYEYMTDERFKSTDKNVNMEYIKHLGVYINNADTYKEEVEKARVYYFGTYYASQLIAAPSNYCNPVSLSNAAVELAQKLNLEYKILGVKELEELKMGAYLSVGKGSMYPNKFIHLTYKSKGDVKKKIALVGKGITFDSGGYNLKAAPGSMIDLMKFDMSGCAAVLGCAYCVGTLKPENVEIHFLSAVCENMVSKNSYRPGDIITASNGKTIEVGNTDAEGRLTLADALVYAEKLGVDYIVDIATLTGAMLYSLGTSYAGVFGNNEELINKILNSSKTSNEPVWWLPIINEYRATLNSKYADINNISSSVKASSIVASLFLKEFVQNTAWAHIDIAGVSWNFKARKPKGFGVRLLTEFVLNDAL
Calls of active or inactive are those of the source.
Documented IC50 across a set of compounds

Example results:
CN1CCS/C1=C\C=C1/SC(=S)N(CC(=O)O)C1=O ... 52.3 µM (active)
O=C(O)c1ccccc1NS(=O)(=O)c1ccc(NNC(=S)Nc2ccc(OC(F)F)cc2)c([N+](=O)[O-])c1 ... 5.33 µM (active)
Cc1ccc(OCc2ccc(C(=O)O)o2)c([N+](=O)[O-])c1 ... 31.8 µM (active)

Turning now to a further compound:
Q. Provide one value: measured IC50 of `O=C(O)c1ccccc1-c1ccccc1C(=O)Nc1ccc2c(c1)[nH]c(=O)c1ccccc12`
A. 38.8 µM (active)

* * *

Documented IC50 across a set of compounds
Biological target: Carboxy-terminal domain RNA polymerase II polypeptide A small phosphatase 1 (Homo sapiens, UniProt Q9GZU7)
Sequence (Q9GZU7 whole entry): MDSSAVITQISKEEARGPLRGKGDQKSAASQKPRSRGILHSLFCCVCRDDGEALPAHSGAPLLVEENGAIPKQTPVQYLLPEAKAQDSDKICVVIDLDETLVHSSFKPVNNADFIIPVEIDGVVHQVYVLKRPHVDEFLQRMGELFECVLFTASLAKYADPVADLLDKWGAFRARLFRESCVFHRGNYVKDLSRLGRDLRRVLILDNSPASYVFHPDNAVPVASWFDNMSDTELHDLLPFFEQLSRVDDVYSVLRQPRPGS
Test: CTDSP1 inhibitors, concentration-response, biochemical, absorbance readout, ultra-high-throughput screen actives (AID 540297)
Assay type: functional
Activity calls are given as the source filed them.

Example results:
O=C(N/N=C/c1cc(Br)c(Br)o1)c1cc2ccccc2o1 ... 5.65 µM (active)
N#C/C(=C/c1ccc(OC(=O)c2ccc(Br)s2)cc1)c1nc2ccccc2[nH]1 ... 1.82 µM (active)
NC(=O)c1ccc(N/C=C2/C(=O)NC(=O)N(Cc3ccco3)C2=O)cc1 ... 3.45 µM (active)

Q. Provide one value: measured IC50 of `CCN(c1ccccc1)S(=O)(=O)c1cc(C(=O)OCC(=O)c2c(N)n(C)c(=O)n(C)c2=O)ccc1C`
A. 3.71 µM (active)

Q. Provide one value: measured IC50 of `O=C(OCc1nnc(-c2ccccc2)o1)c1ccc(S(=O)(=O)NCc2ccco2)cc1`
A. 13.4 µM (active)

Q. Provide one value: measured IC50 of `Cc1ccccc1NC(=O)CSc1ccsc1[N+](=O)[O-]`
A. 2.3 µM (active)

Q. Provide one value: measured IC50 of `Cc1csc(NC(=O)CSc2sc3c(O)cc(O)nc3c2C#N)n1`
A. 5.14 µM (active)

Q. Provide one value: measured IC50 of `Cc1cc(Br)ccc1NC(=O)CN(C)C(=O)Cn1c(=O)cnc2ccccc21`
A. 7.57 µM (active)

* * *

Documented IC50 across a set of compounds
biological target: Nonstructural protein 1 (Influenza A virus, UniProt Q194T2); type: functional, Influenza A virus (A/California/07/2009(H1N1))
Sequence (Q194T2 whole entry): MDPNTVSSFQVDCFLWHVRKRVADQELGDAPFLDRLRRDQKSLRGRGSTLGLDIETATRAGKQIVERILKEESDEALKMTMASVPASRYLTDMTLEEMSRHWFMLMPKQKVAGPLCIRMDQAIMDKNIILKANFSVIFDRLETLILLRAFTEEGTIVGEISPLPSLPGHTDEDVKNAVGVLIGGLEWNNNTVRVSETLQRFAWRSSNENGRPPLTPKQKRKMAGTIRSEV
Active and inactive are the calls of the source.

N#C/C(=C/C1=C(N2CCOCC2)C(=C/c2ccccc2)/CC1)C(=O)Nc1ccccc1F ... 3.83 µM (active)
Nc1nc(N)nc(-c2ccccn2)n1 ... 19.9 µM (active)
c1ccc(-c2cccc(-c3ccccn3)n2)nc1 ... 1.84 µM (active)
Cc1ccc(N2CCOCC2)c2c1C(=O)c1ccccc1C2=O ... 14.5 µM (active)

Q. Retrieve IC50 on Nonstructural protein 1 (Influenza A virus, UniProt Q194T2); query `O=C(O)c1ccccc1NS(=O)(=O)c1ccc(NNC(=S)Nc2ccc(OC(F)F)cc2)c([N+](=O)[O-])c1`
A. 13 µM (active)

Q. Retrieve IC50 on Nonstructural protein 1 (Influenza A virus, UniProt Q194T2); query `O=C1C(NS(=O)(=O)c2cccs2)=C(N2CCN(c3cccc(C(F)(F)F)c3)CC2)C(=O)c2ccccc21`
A. 19.6 µM (active)

Q. Retrieve IC50 on Nonstructural protein 1 (Influenza A virus, UniProt Q194T2); query `N#Cc1nc(-c2ccco2)oc1N1CCc2ccccc2C1`
A. > 100 µM (active)

Q. Retrieve IC50 on Nonstructural protein 1 (Influenza A virus, UniProt Q194T2); query `CCCCN1C(=O)/C(=C2\SC(N3CCCCC3)=NC2=O)c2ccccc21`
A. 27.4 µM (active)

* * *

tested on: P388/ADR; test: cells; format: functional; settings: Mus musculus
Activity calls are given as the source filed them.
assay-metric: GI50

O=C(CCBr)N1CCN(C(=O)CCBr)CC1 [PIPOBROMAN] ... 13.2 µM (inactive)
CC(=O)Oc1c(OC(C)=O)c(-c2ccc(O)c(O)c2)c(O)c(O)c1-c1ccc(O)cc1 ... 20.7 µM (inactive)

Q. Provide one value: measured GI50 of `CC(C)CC/N=c1/cc2n(-c3ccc(Cl)cc3)c3ccccc3nc-2cc1Nc1ccc(Cl)cc1`
A. 2.19 µM (inactive)

Q. Provide one value: measured GI50 of `O=C(O)CCCCCCC[C@@H]1S[C@H]1CCCCCCO`
A. > 100 µM (inactive)

* * *

assay: viability of uninfected HEp-2 cells – cell-based, HTS, cytotoxicity control for RSV inhibitor project, dose response (AID 2410); format: functional; details: human respiratory syncytial virus
Calls of active or inactive are those of the source.
Documented CC50 across a set of compounds

Q. Provide one value: measured CC50 of `CCOC(=O)Cc1csc(NC(=O)c2ccc(S(=O)(=O)N3CCCCC3)cc2)n1`
A. 11.5 µM (active)

Q. Provide one value: measured CC50 of `O=C(CN1CCC(n2nnc3cc(F)ccc32)CC1)Nc1ccc2c(c1)CCC2`
A. > 50 µM (active)

Q. Provide one value: measured CC50 of `OCCCNc1nc(-c2ccc(Cl)cc2)nc2ccccc12`
A. > 50 µM (active)

Q. Provide one value: measured CC50 of `CCCCc1c(C)nn(-c2nnc3c4ccccc4n(CC)c3n2)c1C`
A. 5.26 µM (active)

Q. Provide one value: measured CC50 of Cc1c(Cl)ccc2c(C(=O)NC(C)c3ccncc3)cc(-c3ccncc3)nc12 (configuration not stated)
A. 25.1 µM (active)

Q. Provide one value: measured CC50 of `O=C1C(NS(=O)(=O)c2cccs2)=C(N2CCN(c3cccc(C(F)(F)F)c3)CC2)C(=O)c2ccccc21`
A. 12.4 µM (active)

Q. Provide one value: measured CC50 of `Cn1c(-c2ccsc2)c(-c2cccs2)c2cc(-c3cccc4[nH]ccc34)ccc21`
A. 32.1 µM (active)

* * *

target: Dual specificity tyrosine-phosphorylation-regulated kinase 1A (Rattus norvegicus, UniProt Q63470); format: biochemical, Homo sapiens
The source made the active and inactive calls.
assay-metric: AC50

Q. Provide one value: measured AC50 of `CC1(C)Cc2nc3sc4c(SCC(=O)O)ncnc4c3cc2CO1`
A. 2600 nM (active)

Q. Provide one value: measured AC50 of `O=C(Nc1ccc(Cl)cc1)Nc1ccc2c(c1)N1CCN=C1S2`
A. 1070 nM (active)

Q. Provide one value: measured AC50 of `COc1ccc(/C=C2\SC(=N)NC2=O)cc1`
A. 38 nM (active)

Q. Provide one value: measured AC50 of `O=C(CSc1nnnn1-c1ccc(O)cc1)Nc1ccc(N2CCOCC2)c(Cl)c1`
A. 8120 nM (active)

Q. Provide one value: measured AC50 of `COc1cc(O)c2c(=O)c3c(O)c(O)ccc3oc2c1OC`
A. 2060 nM (active)

* * *

molecular target: Melanocortin receptor 4 (Homo sapiens, UniProt P32245); assay: inhibitors of MC4R cAMP signaling – cell-based, TR-FRET, biased antagonists, dose response (AID 602298); type: functional;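 further: antagonist potency against agonist-stimulated cAMP production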
Sequence (P32245 whole entry): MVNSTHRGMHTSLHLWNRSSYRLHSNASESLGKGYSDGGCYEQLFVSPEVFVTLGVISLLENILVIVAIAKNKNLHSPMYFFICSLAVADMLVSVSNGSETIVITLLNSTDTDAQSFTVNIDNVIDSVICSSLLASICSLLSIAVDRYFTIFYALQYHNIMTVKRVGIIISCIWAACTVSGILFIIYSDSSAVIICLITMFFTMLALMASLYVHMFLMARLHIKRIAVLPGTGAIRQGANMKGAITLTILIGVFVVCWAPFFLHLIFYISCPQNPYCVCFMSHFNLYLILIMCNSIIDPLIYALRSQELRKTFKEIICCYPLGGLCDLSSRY
Calls of active or inactive are those of the source.
Write down one outcome, taken from true (1) = active, false (0) = inactive

Consider the worked cases shown below.
COc1ccc(-c2cc(C(=O)Nc3cc(OC)cc(C(=O)Nc4cccc(C(F)(F)F)c4)c3)[nH]n2)cc1 ... false (0)
O=C(O)c1cc(-c2ccc(Cl)s2)nc2ccccc12 ... false (0)
CCOC(=O)c1cnc2ccc(OCC)cc2c1N(C)Cc1ccccc1 ... false (0)

Q. So what was the verdict on `CCOC(=O)c1ccc(/N=c2\sc(C(=O)OC)cc(=O)n2Cc2ccco2)cc1` in this test?
A. true (1)

* * *

target: Fatty acid synthase (Homo sapiens); experiment: inhibition of human FAS-TE enzyme activity – biochemical, endpoint fluorescence intensity, uHTS hits, dose response (AID 624327); format: functional;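 further: fluorescence from hydrolysis of an O-methyl fluorescein acyl ester substrate by the enzyme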
Sequence (P49327 whole entry): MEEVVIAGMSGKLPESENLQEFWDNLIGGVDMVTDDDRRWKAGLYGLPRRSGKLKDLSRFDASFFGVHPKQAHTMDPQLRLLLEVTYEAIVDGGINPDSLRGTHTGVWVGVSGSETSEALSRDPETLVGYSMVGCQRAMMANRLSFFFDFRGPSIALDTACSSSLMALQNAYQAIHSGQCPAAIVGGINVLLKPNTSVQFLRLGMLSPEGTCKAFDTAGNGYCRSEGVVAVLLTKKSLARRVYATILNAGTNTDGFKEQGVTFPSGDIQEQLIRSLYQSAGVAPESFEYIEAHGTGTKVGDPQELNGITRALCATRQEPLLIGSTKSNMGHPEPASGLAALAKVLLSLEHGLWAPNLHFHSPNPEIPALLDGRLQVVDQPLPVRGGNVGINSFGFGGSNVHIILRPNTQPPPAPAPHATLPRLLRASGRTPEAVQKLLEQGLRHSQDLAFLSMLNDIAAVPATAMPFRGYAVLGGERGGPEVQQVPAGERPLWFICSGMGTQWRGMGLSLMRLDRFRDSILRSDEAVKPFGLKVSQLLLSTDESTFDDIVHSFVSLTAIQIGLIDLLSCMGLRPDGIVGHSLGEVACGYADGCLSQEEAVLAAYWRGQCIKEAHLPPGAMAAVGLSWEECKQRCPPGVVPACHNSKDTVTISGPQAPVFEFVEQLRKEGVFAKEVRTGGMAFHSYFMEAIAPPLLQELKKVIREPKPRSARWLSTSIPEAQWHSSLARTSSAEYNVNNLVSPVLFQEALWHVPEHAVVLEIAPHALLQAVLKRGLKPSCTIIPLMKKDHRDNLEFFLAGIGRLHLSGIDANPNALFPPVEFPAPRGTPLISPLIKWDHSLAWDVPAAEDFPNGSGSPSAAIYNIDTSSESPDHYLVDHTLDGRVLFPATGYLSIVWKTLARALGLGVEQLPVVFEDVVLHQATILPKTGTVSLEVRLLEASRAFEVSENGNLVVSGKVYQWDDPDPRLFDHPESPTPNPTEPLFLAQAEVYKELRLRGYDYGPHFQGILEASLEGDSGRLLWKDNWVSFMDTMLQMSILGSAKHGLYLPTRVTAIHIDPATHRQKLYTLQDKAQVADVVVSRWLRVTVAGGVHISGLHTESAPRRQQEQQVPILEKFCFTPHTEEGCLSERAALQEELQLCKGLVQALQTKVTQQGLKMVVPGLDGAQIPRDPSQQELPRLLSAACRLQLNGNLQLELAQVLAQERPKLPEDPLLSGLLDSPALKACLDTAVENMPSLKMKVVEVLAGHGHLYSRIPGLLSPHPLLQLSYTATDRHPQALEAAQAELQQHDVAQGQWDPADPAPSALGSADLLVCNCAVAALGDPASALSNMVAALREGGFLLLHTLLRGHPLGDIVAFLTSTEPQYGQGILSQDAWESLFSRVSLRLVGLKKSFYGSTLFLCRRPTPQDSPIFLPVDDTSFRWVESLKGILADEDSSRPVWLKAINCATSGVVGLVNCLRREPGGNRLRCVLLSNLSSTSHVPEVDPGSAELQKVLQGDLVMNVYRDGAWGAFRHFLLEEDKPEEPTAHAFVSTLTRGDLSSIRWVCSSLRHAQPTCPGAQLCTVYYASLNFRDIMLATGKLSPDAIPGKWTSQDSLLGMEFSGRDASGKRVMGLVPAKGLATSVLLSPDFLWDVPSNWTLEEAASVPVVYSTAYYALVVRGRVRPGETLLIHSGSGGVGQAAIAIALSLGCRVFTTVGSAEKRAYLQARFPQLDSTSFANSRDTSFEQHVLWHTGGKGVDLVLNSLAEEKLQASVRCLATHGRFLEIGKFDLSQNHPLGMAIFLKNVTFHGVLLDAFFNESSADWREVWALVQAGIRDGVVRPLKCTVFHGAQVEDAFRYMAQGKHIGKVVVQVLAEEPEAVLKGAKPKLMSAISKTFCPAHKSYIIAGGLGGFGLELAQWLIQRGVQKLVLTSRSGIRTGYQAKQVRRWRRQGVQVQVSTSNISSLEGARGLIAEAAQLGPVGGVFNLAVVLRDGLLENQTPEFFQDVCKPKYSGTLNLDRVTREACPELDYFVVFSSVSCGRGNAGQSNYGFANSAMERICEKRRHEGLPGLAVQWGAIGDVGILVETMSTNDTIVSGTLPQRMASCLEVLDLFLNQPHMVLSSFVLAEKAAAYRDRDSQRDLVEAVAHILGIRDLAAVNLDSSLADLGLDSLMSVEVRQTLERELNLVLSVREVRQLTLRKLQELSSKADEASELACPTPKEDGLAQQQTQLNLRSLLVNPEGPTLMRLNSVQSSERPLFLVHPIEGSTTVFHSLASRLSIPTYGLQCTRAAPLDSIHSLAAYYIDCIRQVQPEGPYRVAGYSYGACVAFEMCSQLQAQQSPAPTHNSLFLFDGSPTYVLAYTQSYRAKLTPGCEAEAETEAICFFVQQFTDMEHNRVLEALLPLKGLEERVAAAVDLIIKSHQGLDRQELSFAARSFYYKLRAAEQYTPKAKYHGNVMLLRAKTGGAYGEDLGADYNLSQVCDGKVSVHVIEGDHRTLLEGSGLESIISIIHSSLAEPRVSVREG
Calls of active or inactive are those of the source.
Documented IC50 across a set of compounds

Example results:
Cc1ccc(S(=O)(=O)ON2C(=O)c3ccccc3C2=O)c(C)c1 ... 1.35 µM (active)
Cc1ccc(C(=O)O/N=C(\N)Cc2cccs2)cc1[N+](=O)[O-] ... 9.57 µM (active)
CN(C)C=O.O=C(O)c1ccccc1NS(=O)(=O)c1ccc(NN=Cc2ccc(F)cc2)c([N+](=O)[O-])c1 ... 7.9 µM (active)
O=C(CSc1ncnc2c1cnn2-c1ccccc1)NC1CCCC1 ... 5.94 µM (active)
CC(C)N1CCc2c(sc(NC(=O)c3ccc([N+](=O)[O-])o3)c2C(N)=O)C1 ... 6.27 µM (active)

Turning now to a further compound:
Q. Provide one value: measured IC50 of `O=C(COC(=O)c1cc([N+](=O)[O-])ccc1Cl)NCCc1ccccc1`
A. 3.93 µM (active)
